- run description: amyloid nucleation score (Sup35N fusion, yeast selection) (log enrichment); library NNK2; higher = more nucleation; inactive = no reads after selection;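 note: zero at mode of non-aggregating sequences after 7 days selection at 30°C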
Use T when the recorded amyloid nucleation score is no lower than 2; use F when it is lower.

{"columns": ["substance", "group label"],
 "data": [
  ["HWNMLSIENLAHVEIIRLGS", "T"],
  ["DFIITVL", "F"],
  ["IVNCCSYLYTRIHNVGPAGN", "T"]
]}

Prompt line: Threshold query (amyloid nucleation score >= 2) on `ISTTFV`
Response line: F

Prompt line: Threshold query (amyloid nucleation score >= 2) on `TTTWGENLFASNYLLSKTAG`
Response line: F

Prompt line: Threshold query (amyloid nucleation score >= 2) on `ADCVSICVSYRRFHLAKYR`
Response line: T

Prompt line: Threshold query (amyloid nucleation score >= 2) on `EVANGKFCNFGSLYDLMWWE`
Response line: F

The origin of these recorded values is the supplement of paper PMC12042874.
